# Assayed System: Cellular tumor antigen p53 (Homo sapiens) (UniProt P04637)
# Sequence (P04637 whole entry, looked up): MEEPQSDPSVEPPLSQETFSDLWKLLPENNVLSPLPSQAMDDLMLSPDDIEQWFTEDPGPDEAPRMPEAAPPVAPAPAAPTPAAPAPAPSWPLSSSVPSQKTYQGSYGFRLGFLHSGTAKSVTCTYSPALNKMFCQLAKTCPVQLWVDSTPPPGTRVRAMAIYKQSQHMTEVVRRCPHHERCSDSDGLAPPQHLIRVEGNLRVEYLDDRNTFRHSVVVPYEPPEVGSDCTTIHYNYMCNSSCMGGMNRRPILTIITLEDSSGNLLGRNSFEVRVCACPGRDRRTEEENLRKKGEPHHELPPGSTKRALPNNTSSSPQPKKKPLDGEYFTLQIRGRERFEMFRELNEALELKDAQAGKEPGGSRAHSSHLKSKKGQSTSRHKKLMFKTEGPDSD
# Experiment Description: p53 stabilisation in HPV-positive human cells, imaging, p53-positive nuclei imaging, 24 h, 48 h (AID 1508601)
# Condition Info: 24/48 h, measured here: p53 positive nuclei at 24 h, Library stock concentration: 13.7 uM, stronger effect = higher value
The whole screen tested about 5,700 compounds, of which about 85 (1%) were called active. The sample holds actives, similar compounds and a random draw of the others, so the mix is not that of the screen.
Quantity Name: p53-positive nuclei, normalised (%)
The answer is to be given in %; state only the numeric part.

Guide cases for p53-positive nuclei, normalised, answers given:
Molecule	p53-positive nuclei, normalised (%)
CN1C(=O)[C@@]23C[C@]4([C@]56C[C@@]78SS[C@@](CO)(C(=O)N7[C@@H]5Nc5ccccc56)N(C)C8=O)c5ccccc5N[C@H]4N2C(=O)[C@]1(CO)SS3	13.4
NOCCC(N)C(=O)O (stereo not given)	-0.187
CC1OC(O[C@H]2CC[C@@]3(C)[C@@H](CC[C@@H]4[C@H]3CC[C@]3(C)[C@@H](C5=CC(=O)OC5)CC[C@]43O)C2)CC(O)C1O (stereo not given in full)	2.28
OC1CN2CCC(O)[C@H]2C(O)C1O (stereo not given in full)	-0.189

Next item in the queue.
Summary for this molecule, `CC1=CC(=O)c2c(O)cccc2C1=O` : p53-positive nuclei, normalised is 0.0863

// provenance: PubChem BioAssay AID1508601
